B1: CPEB3 Ribozyme (parent)
chain: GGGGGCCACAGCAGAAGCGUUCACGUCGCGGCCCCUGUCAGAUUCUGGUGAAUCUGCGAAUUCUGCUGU

Variants of: B1
EXPERIMENT_DESCRIPTION: self-cleavage, relative activity (ratio to wild type); higher = more cleavage; co-transcriptional
OBSERVATION_TYPE: self-cleavage
Lab note: record the figure alone, no unit after it.

Example entries and their recorded answers appear below.
In [3]: df
Out[3]:
     changes  reading
0  A16C C22A    0.105
1  C57A A60C    0.264
2   G1C U44G    0.151
3  C39G C54G    0.625
4  C24U U43C    0.691

-- ask Sample G19A G28A — what was its self-cleavage?
-- reply 0.152

-- ask Sample C35U A42G — what was its self-cleavage?
-- reply 0.943

-- ask Sample C22A G41A — what was its self-cleavage?
-- reply 0.12

-- ask Sample A15U A59C — what was its self-cleavage?
-- reply 0.42

-- ask Sample C29U G31U — what was its self-cleavage?
-- reply 0.221

-- ask Sample A23U G56C — what was its self-cleavage?
-- reply 0.936

-- ask Sample C29G U44A — what was its self-cleavage?
-- reply 0.338

-- ask Sample U49G C63G — what was its self-cleavage?
-- reply 0.907

-- ask Sample G19A U26A — what was its self-cleavage?
-- reply 0.19

-- ask Sample G37C A51U — what was its self-cleavage?
-- reply 0.171

-- ask Sample A51U U53G — what was its self-cleavage?
-- reply 0.825

-- ask Sample A51U C66A — what was its self-cleavage?
-- reply 0.706

-- ask Sample G5U C63G — what was its self-cleavage?
-- reply 0.0897

-- ask Sample U38C G56U — what was its self-cleavage?
-- reply 0.658

-- ask Sample G4U U64A — what was its self-cleavage?
-- reply 0.535

The values you see were collected from the RNAGym collection of RNA variant scans (doi:10.7554/elife.80360).
